# assay comment: Ph-1 placebo-controlled, randomized, single ascending dose study: pharmacokinetics
# Format: in vivo
# condition set: both sexes, human, in vivo, oral; humans, single dose 200 mg to 1600 mg; range of medians; read-out: median Tmax
recorded endpoint: Tmax

**Q:** Give its Tmax value. Item: O=c1c2ccccc2[se]n1-c1ccccc1
**A:** 1.5 to 2.3 h

----------
# assay comment: Repeat dosing 28-day study, monkey
# condition set: cynomolgus monkey, in vivo, Cynomolgus monkeys, read-out: no-observable-effect-level (NOAEL)
# Method: Seven acute and repeated dose toxicology studies were conducted in Sprague-Dawley rats, Sinclair miniature swine, and Cynomolgus monkey, and three genotoxicology studies.
recorded endpoint: NOAEL at 28 days (mg/kg)
Kindly answer with a numeric value in mg/kg, unit omitted.

**Q:** Give its NOAEL at 28 days value. Item: O=c1c2ccccc2[se]n1-c1ccccc1
**A:** 2000
